Item-by-item account of EC50
Tested on: Human immunodeficiency virus 1
Assay info: Antiviral activity against wild type HIV-1 NLRepRlucP373S harboring deltaV370 mutant infected in human MT2 cells assessed as inhibition of viral growth measured after 4 to 5 days by Dual luciferase reporter assay
Assay type: functional, organism-based
Measurement setup: Human immunodeficiency virus 1, NLRepRlucP373S
Give the quantity in nM, number only.

Here's what some known entries look like.
C=C(C)[C@@H]1CC[C@]2(NCCC3(O)COC3)CC[C@]3(C)[C@H](CC[C@@H]4[C@@]5(C)CC=C(C6=CC[C@](CF)(C(=O)O)CC6)C(C)(C)[C@@H]5CC[C@]43C)[C@@H]12 = 5.3
C=C(C)[C@@H]1CC[C@]2(NCCN3CCS(=O)(=O)CC3)CC[C@]3(C)[C@H](CC[C@@H]4[C@@]5(C)CC=C(C6=CC[C@@](CF)(C(=O)O)CC6)C(C)(C)[C@@H]5CC[C@]43C)[C@@H]12 = 3
C=C(C)[C@@H]1CC[C@]2(NCC[C@]3(O)CC[C@@H](S(C)(=O)=O)CC3)CC[C@]3(C)[C@H](CC[C@@H]4[C@@]5(C)CC=C(C6=CC[C@](CF)(C(=O)O)CC6)C(C)(C)[C@@H]5CC[C@]43C)[C@@H]12 = 5.1
C=C(C)[C@@H]1CC[C@]2(NCC[C@]3(O)CC[C@](C)(O)CC3)CC[C@]3(C)[C@H](CC[C@@H]4[C@@]5(C)CC=C(C6=CC[C@](CF)(C(=O)O)CC6)C(C)(C)[C@@H]5CC[C@]43C)[C@@H]12 = 6

Ask | Give Human immunodeficiency virus 1 EC50 for C=C(C)[C@@H]1CC[C@]2(NCCN3CCS(=O)(=O)CC3)CC[C@]3(C)[C@H](CC[C@@H]4[C@@]5(C)CC=C(c6ccc(C(=O)O)cc6)C(C)(C)[C@@H]5CC[C@]43C)[C@@H]12 [BMS-955176]
Reply | 6

====

Assay info: Cytotoxicity against human MT2 cells assessed as reduction in cell viability
Format: toxicity, cell-based
Lab note: cut-off is 10 µM. Strictly less in CC50 is true (1). Exactly 10 µM or more is false (0).

C=C(C)[C@@H]1CC[C@]2(NCCN3CCOCC3)CC[C@]3(C)[C@H](CC[C@@H]4[C@@]5(C)CC=C(C6=CC[C@](CF)(C(=O)O)CC6)C(C)(C)[C@@H]5CC[C@]43C)[C@@H]12 = true (1)

Ask | Is the reported CC50 for C=C(C)[C@@H]1CC[C@]2(NCC(C)(C)O)CC[C@]3(C)[C@H](CC[C@@H]4[C@@]5(C)CC=C(C6=CC[C@](CF)(C(=O)O)CC6)C(C)(C)[C@@H]5CC[C@]43C)[C@@H]12 strictly below 10 µM?
Reply | true (1)

Ask | Is the reported CC50 for C=C(C)[C@@H]1CC[C@]2(NCC[C@]3(O)CC[C@H](S(C)(=O)=O)CC3)CC[C@]3(C)[C@H](CC[C@@H]4[C@@]5(C)CC=C(C6=CC[C@](CF)(C(=O)O)CC6)C(C)(C)[C@@H]5CC[C@]43C)[C@@H]12 strictly below 10 µM?
Reply | false (0)

Ask | Is the reported CC50 for C=C(C)[C@@H]1CC[C@]2(NCCC3(O)CCC3)CC[C@]3(C)[C@H](CC[C@@H]4[C@@]5(C)CC=C(C6=CC[C@](CF)(C(=O)O)CC6)C(C)(C)[C@@H]5CC[C@]43C)[C@@H]12 strictly below 10 µM?
Reply | false (0)

Ask | Is the reported CC50 for C=C(C)[C@@H]1CC[C@]2(NCCC3(O)COC3)CC[C@]3(C)[C@H](CC[C@@H]4[C@@]5(C)CC=C(C6=CC[C@](CF)(C(=O)O)CC6)C(C)(C)[C@@H]5CC[C@]43C)[C@@H]12 strictly below 10 µM?
Reply | false (0)

====

Item-by-item account of solubility
Assay info: Solubility of compound in FaSSIF at pH 6.5
Type: ADME
Give the quantity in µM, number only.

Here's what some known entries look like.
C=C(C)[C@@H]1CC[C@]2(NCC[C@]3(O)CC[C@@H](S(C)(=O)=O)CC3)CC[C@]3(C)[C@H](CC[C@@H]4[C@@]5(C)CC=C(C6=CC[C@](CF)(C(=O)O)CC6)C(C)(C)[C@@H]5CC[C@]43C)[C@@H]12 = 21
C=C(C)[C@@H]1CC[C@]2(NCCN3CCS(=O)(=O)CC3)CC[C@]3(C)[C@H](CC[C@@H]4[C@@]5(C)CC=C(C6=CC[C@@](CF)(C(=O)O)CC6)C(C)(C)[C@@H]5CC[C@]43C)[C@@H]12.Cl.Cl = 310

Would you kindly look at the next entry?
Ask | Suppose we examine the compound C=C(C)[C@@H]1CC[C@]2(NCCC3(O)COC3)CC[C@]3(C)[C@H](CC[C@@H]4[C@@]5(C)CC=C(C6=CC[C@](CF)(C(=O)O)CC6)C(C)(C)[C@@H]5CC[C@]43C)[C@@H]12 ; what solubility value has been reported?
Reply | 4
